# Test system: HCT-116
# protocol-description: Antiproliferative activity against human HCT-116 cells assessed as reduction in cell viability at 50 uM measured after 24 hrs
# Assay type: functional, cell-based
Calls of active or inactive are those of the source. The rule behind the calls is not given here.
test-readout: Activity

Use these answered entries as a reference point.
COc1ccc2c3c(n(Cc4ccccc4C)c2c1)C(C)=NCC3    Active
COc1ccc2c3c(n(CCc4ccc(F)cc4)c2c1)C(C)=NCC3    Active
COc1ccc2c3c(n(Cc4ccc(C)cc4)c2c1)C(C)=NCC3    Active
C#CCn1c2c(c3ccc(OC)cc31)CCN=C2C    Active
COC(=O)CCCCn1c2c(c3ccc(OC)cc31)CCN=C2C    Active
COc1ccc2c3c(n(C/C=C/c4ccccc4)c2c1)C(C)=NCC3    Active
COC(=O)CCCn1c2c(c3ccc(OC)cc31)CCN=C2C    Active
COc1ccc2c3c(n(Cc4cccc(F)c4)c2c1)C(C)=NCC3    Active

Requested read-out: Activity. Entry: COc1ccc2c3c(n(CCCCCCn4c5cc(OC)ccc5c5ccnc(C)c54)c2c1)C(C)=NCC3
Active

Look up Activity for this compound: C=CCn1c2c(c3ccc(OC)cc31)CCN=C2C
Active

# get_value(readout='Activity', item= COc1ccc2c3c(n(CCCCBr)c2c1)C(C)=NCC3 )
Active

Activity lookup needed for COc1ccc2c3c(n(Cc4ccccc4)c2c1)C(C)=NCC3 , thanks.
Active

May I ask what Activity has been recorded for COC(=O)CCn1c2c(c3ccc(OC)cc31)CCN=C2C ?
Active

Endpoint output: Activity of COC(=O)Cn1c2c(c3ccc(OC)cc31)CCN=C2C . Value?
Active

Which value of Activity has been reported for COc1ccc2c3c(n(Cc4ccccc4F)c2c1)C(C)=NCC3 in the records?
Active

Fill in the blank: the reported Activity of COc1ccc2c3c(n(CCCCCBr)c2c1)C(C)=NCC3 is ____.
Active

Activity lookup needed for COc1ccc2c3c(n(Cc4ccc(F)cc4)c2c1)C(C)=NCC3 , thanks.
Active

Name the recorded Activity for COc1ccc2c3c(n(Cc4cccc(C)c4)c2c1)C(C)=NCC3 .
Active

###

# System: MCF7
# protocol-description: Antiproliferative activity against human MCF7 cells assessed as reduction in cell viability at 50 uM measured after 24 hrs
# Type: functional, cell-based
Active and inactive are the calls of the source. The rule behind the calls is not given here.
test-readout: Activity

COc1ccc2c3c(n(C/C=C/c4ccccc4)c2c1)C(C)=NCC3    Active
COc1ccc2c3c(n(Cc4ccc(F)cc4)c2c1)C(C)=NCC3    Active
COC(=O)CCCCn1c2c(c3ccc(OC)cc31)CCN=C2C    Active
COc1ccc2c3c(n(CCc4ccc(F)cc4)c2c1)C(C)=NCC3    Active
C#CCn1c2c(c3ccc(OC)cc31)CCN=C2C    Active
COc1ccc2c3c(n(Cc4ccccc4F)c2c1)C(C)=NCC3    Active
COc1ccc2c3c(n(Cc4ccccc4C)c2c1)C(C)=NCC3    Active
COc1ccc2c3c(n(CCCCCCn4c5cc(OC)ccc5c5ccnc(C)c54)c2c1)C(C)=NCC3    Active
COC(=O)CCCn1c2c(c3ccc(OC)cc31)CCN=C2C    Active
COc1ccc2c3c(n(Cc4ccc(C)cc4)c2c1)C(C)=NCC3    Active

Report Activity for C=CCn1c2c(c3ccc(OC)cc31)CCN=C2C please.
Active

Sample COC(=O)CCn1c2c(c3ccc(OC)cc31)CCN=C2C — what was its Activity?
Active

Look up Activity: COc1ccc2c3c(n(CCCCCBr)c2c1)C(C)=NCC3
Active

Item COc1ccc2c3c(n(Cc4ccccc4)c2c1)C(C)=NCC3 has what recorded Activity?
Active

Activity lookup needed for COC(=O)Cn1c2c(c3ccc(OC)cc31)CCN=C2C , thanks.
Active

Fill in: Activity of COc1ccc2c3c(n(Cc4cccc(F)c4)c2c1)C(C)=NCC3 is ___
Active

Item under review: COc1ccc2c3c(n(Cc4cccc(C)c4)c2c1)C(C)=NCC3 . Reported Activity?
Active

Given the compound COc1ccc2c3c(n(CCCCBr)c2c1)C(C)=NCC3 , what is its reported Activity?
Active

meta.source: ChEMBL document CHEMBL6109057
